Target: Aromatase (Homo sapiens, UniProt P11511)
Sequence (P11511 whole entry): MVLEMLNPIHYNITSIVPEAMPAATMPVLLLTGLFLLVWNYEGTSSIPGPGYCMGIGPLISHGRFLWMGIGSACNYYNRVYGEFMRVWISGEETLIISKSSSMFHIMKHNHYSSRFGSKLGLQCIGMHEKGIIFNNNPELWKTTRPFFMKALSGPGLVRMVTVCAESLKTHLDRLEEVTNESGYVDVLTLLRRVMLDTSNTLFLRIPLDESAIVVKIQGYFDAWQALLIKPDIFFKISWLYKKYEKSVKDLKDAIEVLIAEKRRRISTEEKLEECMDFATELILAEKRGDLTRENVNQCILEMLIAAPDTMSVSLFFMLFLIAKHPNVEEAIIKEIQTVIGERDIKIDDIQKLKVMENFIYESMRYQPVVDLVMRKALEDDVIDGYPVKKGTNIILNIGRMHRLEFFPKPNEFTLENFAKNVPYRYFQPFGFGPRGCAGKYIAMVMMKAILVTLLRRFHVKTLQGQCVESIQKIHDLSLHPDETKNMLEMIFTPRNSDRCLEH
Test: Competitive inhibition of human aromatase extracted from placental microsomes by Dixon plot analysis in presence of [1beta-3H]AD
Conditions: read-out: Ki
pKi: −log10 of the molar value.
endpoint name: pKi

1) CCO[C@@H]1C[C@@]2(C)C(=CC1=O)CC[C@@H]1[C@@H]2CC[C@]2(C)C(=O)CC[C@@H]12	6.17
2) C[C@]12C[C@@H](Cl)C(=O)C=C1CC[C@@H]1[C@@H]2CC[C@]2(C)C(=O)CC[C@@H]12	7.35
3) CO[C@H]1C=C2C(=O)C[C@@H]3[C@H](CC[C@]4(C)C(=O)CC[C@@H]34)[C@@]2(C)CC1	6.15
4) C[C@]12C[C@@H](O)C(=O)C=C1CC[C@@H]1[C@@H]2CC[C@]2(C)C(=O)CC[C@@H]12	6.17

* * *

Molecular target: Aromatase (Homo sapiens)
Experiment: Competitive inhibition of human aromatase extracted from placental microsomes by Dixon plot analysis in presence of [1beta-3H]AD
Conditions: read-out: Ki(app)
endpoint name: Ki (nM)

1. C[C@]12CCC(=O)C=C1C(=O)C[C@@H]1[C@@H]2CC[C@]2(C)C(=O)[C@H](Br)C[C@@H]12	150

* * *

Listing: Ki of selected molecules
Molecular target: Aromatase (Homo sapiens)
Experiment: Inhibition of aromatase (unknown origin)
endpoint name: Ki (nM)

1) C[C@]12CC[C@H]3[C@@H](CCC4=CC(=O)CC[C@@]43[C@@H]3CN3)[C@@H]1CCC2=O	3.4
2) C[C@]12CC[C@H]3[C@@H](CCC4=CC(=O)CC[C@@]43[C@H]3CN3)[C@@H]1CC[C@@H]2O	3.4
3) CC1(C)C[C@@]2(C)C(=C(O)C1=O)C(=O)C[C@@H]1[C@@H]2CC[C@]2(C)C(=O)CC[C@@H]12	40

* * *

Ki, Aromatase (Homo sapiens), per-entry values.
endpoint name: Ki (nM)

1) C[C@]12CC[C@H]3[C@@H](CCC4=CC(=O)CC[C@@]43[C@@H]3CS3)[C@@H]1CCC2=O	2
2) C[C@]12CC[C@H]3[C@@H](CCC4=CC(=O)C=C[C@@]43C)[C@@H]1CC[C@@H]2O	260
3) C[C@]12C=CC(=O)C=C1CC[C@@H]1[C@@H]2CC[C@]2(C)C(=O)OC[C@@H]12	260
4) C[C@@]12CCC[C@H]1[C@@H]1CCC3=CC(=O)C=C[C@]3(C)[C@H]1CC2	260

* * *

Molecular target: Aromatase (Homo sapiens, UniProt P11511)
Experiment: Inhibition of human aromatase extracted from placental microsomes using [1beta-3H]androstenedione as substrate after 20 mins by radiometric assay
Listing: log10(IC50) of selected molecules
endpoint name: log10(IC50) (log10 of the value in nM)

1. CC1=C[C@@]2(C)C(=CC1=O)CC[C@@H]1[C@@H]2CC[C@]2(C)C(=O)CC[C@@H]12	2.76
2. CC(=O)O[C@@H]1C=C2C(=O)C[C@@H]3[C@H](CC[C@]4(C)C(=O)CC[C@@H]34)[C@@]2(C)CC1	3.23
3. C[C@]12CCC(=O)C(O)=C1CC[C@@H]1[C@@H]2CC[C@]2(C)C(=O)CC[C@@H]12	3.08
4. CC1=C[C@@]2(C)C(=CC1=O)[C@@H](Br)C[C@@H]1[C@@H]2CC[C@]2(C)C(=O)CC[C@@H]12	2.85
5. C[C@]12CC[C@H](OC=O)C=C1C(=O)C[C@@H]1[C@@H]2CC[C@]2(C)C(=O)CC[C@@H]12	3.23
6. C[C@]12CCCC=C1C(=O)C[C@@H]1[C@@H]2CC[C@]2(C)C(=O)CC[C@@H]12	3.23
7. C[C@]12C=C(CCCc3ccccc3)C(=O)C=C1CC[C@@H]1[C@@H]2CC[C@]2(C)C(=O)CC[C@@H]12	2.15

* * *

Listing: pKi of selected compounds
Target: Aromatase (Homo sapiens)
Sequence (P11511 whole entry): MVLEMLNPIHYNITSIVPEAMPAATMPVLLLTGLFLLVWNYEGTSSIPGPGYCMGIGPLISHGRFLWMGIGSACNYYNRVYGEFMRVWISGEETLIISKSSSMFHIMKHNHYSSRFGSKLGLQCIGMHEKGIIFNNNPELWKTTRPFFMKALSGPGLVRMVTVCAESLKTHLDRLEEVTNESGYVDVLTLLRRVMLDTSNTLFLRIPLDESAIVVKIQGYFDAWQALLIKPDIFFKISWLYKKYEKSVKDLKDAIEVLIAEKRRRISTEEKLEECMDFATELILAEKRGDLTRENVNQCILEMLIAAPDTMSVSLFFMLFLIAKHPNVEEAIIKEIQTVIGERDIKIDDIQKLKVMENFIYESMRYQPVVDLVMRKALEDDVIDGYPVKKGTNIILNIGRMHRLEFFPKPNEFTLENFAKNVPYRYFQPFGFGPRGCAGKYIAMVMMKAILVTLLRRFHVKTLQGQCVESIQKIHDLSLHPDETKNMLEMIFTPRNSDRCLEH
Experiment: Time dependent inactivation of human aromatase extracted from placental microsomes using [1-3H]androstenedione as substrate
pKi: −log10 of the molar value.
endpoint name: pKi

1. C[C@]12CC[C@H]3[C@@H](CCC4=CC(=O)[C@H]5COC[C@]43C5)[C@@H]1CCC2=O	7.75
2. C[C@]12CC[C@H]3[C@@H](CCC4=CC(=O)[C@H]5C[C@@H](O)[C@]43C5)[C@@H]1CCC2=O	6.06
3. C[C@]12CC[C@H]3[C@@H](CCC4=CC(=O)[C@H]5C[C@H](O)[C@]43C5)[C@@H]1CCC2=O	6.03

* * *

Biological target: Aromatase (Homo sapiens)
Assay: Competitive inhibition of aromatase (unknown origin)
endpoint name: Ki (µM)

1) C[C@]1(CC#N)CC[C@H]2[C@@H](CCC3=CC(=O)CC[C@@]32C)[C@@H]1CC#N	10
2) CSC[C@]12CCC(=O)C=C1CC[C@@H]1[C@@H]2CC[C@]2(C)C(=O)CC[C@@H]12	0.001
3) C=CC1OC2(O)CC[C@]13C(=CC[C@@H]1[C@@H]3CC[C@]3(C)C(=O)CC[C@@H]13)C2 (some centres undefined)	10
4) C[C@]12CC[C@H]3[C@@H](CCC4=CC(=O)CC[C@@]43CN=[N+]=[N-])[C@@H]1CCC2=O	0.005

* * *

Molecular target: UniProt:P11511
Sequence (P11511 whole entry): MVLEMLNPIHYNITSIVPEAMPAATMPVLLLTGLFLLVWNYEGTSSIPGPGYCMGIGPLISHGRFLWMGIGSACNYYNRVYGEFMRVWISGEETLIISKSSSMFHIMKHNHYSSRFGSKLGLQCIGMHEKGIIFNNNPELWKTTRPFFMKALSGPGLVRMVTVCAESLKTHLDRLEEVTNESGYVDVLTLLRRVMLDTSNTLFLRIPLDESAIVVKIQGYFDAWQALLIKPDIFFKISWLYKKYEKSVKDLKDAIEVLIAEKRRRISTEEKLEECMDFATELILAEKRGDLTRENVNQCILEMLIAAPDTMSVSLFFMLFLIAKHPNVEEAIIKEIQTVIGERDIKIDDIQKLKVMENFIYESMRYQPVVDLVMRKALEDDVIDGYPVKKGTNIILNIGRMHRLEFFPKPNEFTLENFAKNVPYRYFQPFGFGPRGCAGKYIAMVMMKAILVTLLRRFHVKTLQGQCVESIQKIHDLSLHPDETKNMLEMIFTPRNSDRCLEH
Test: Inhibition of human aromatase extracted from placental microsomes using [1beta-3H]androstenedione as substrate after 20 mins
pIC50: −log10 of the molar value.
Listing: pIC50 of selected compounds
endpoint name: pIC50

1. C[C@]12CC[C@H]3O[C@H]3[C@@H]1CC[C@@H]1[C@@H]2CC[C@]2(C)C(=O)CC[C@@H]12	6.74
2. C[C@]12CCC(=O)C(c3ccc(OS(N)(=O)=O)cc3)=C1CC[C@@H]1[C@@H]2CC[C@]2(C)C(=O)CC[C@@H]12	6.00

The measured values listed here are drawn from ChEMBL document CHEMBL3751755.
